Tested on: H4
Test: Luminescence Cell-Based Dose Response HTS to Identify Activators of 5'UTR Stem-Loop Driven Prion Protein mRNA Translation in H4 Neuroglioblastoma Cells. [Related pubchem assays: 1829 (Project Summary), 1814 (Primary HTS)]
Assay type: functional
Conditions: Homo sapiens
The source made the active and inactive calls. No stated cut-off is given here; in the data, actives have a measured EC50 and inactives only a lower limit.
I'd appreciate it if you could supply EC50 values for the items below.

Some entries whose results are on file:
| molecule | EC50 |
| --- | --- |
| NC(=NOC(=O)Nc1ccccc1)c1ncc([N+](=O)[O-])s1 | > 120 µM (not active) |
| O=C(NCCc1ccc(F)cc1)c1[nH]nc2ccccc12 | 24.5 µM (active) |
| O=C(NCC1CCCO1)c1cc2c(s1)CCC2 (configuration not stated) | 50.9 µM (active) |

List reported EC50 for each of these molecules:
1. CC(CNC(=O)c1ccc(OC2CCN(Cc3ccccn3)CC2)cc1)c1ccccc1 (configuration not stated)
2. O=C(CCSc1ccc(Cl)cc1)N1CCCCCC1
3. CCCCn1c(=O)[nH]c(=O)c2c1nc(Cn1ncc(Cl)c(Cl)c1=O)n2CCC
4. O=[N+]([O-])C(/C=C(\Cl)[N+](=O)[O-])=C(N1CCCCC1)N1CCCCC1

Result string:
1. 35.6 µM (active)
2. 21.6 µM (active)
3. > 120 µM (not active)
4. > 120 µM (not active)

----------
I'd appreciate it if you could supply EC50 values for the items below.
Molecular target: UniProt P9WHJ3
Sequence (P9WHJ3 whole entry): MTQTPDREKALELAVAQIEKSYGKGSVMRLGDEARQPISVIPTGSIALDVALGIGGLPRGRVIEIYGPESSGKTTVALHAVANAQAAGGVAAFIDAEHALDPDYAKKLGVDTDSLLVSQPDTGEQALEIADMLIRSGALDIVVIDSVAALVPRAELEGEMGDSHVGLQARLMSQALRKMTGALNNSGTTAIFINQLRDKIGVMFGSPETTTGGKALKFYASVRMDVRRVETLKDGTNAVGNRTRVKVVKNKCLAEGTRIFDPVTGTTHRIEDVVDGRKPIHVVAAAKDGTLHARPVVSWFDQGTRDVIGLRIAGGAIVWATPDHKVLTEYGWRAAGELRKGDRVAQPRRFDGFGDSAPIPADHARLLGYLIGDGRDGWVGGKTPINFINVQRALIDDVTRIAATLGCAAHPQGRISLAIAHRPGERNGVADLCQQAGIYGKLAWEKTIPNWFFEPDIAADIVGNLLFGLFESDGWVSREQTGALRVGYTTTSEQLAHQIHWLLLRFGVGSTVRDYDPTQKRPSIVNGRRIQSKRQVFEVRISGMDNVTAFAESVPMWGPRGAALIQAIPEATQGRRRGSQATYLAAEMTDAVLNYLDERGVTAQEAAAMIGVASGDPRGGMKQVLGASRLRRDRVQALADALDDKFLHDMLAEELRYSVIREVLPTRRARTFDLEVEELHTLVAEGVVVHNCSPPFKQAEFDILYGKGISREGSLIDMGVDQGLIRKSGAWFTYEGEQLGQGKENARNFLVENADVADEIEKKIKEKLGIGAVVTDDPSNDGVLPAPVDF
Test: Fluorescence Cell-Free Homogeneous Dose Retest to Identify Inhibitors of RecA-Intein Splicing Activity. [Related pubchem assays (depositor defined):AID2097, AID2223, AID489010, AID492950]
Assay type: functional
Activity calls are given as the source filed them. Rule as the data show it: actives have a measured EC50 and inactives only a lower limit.

Some entries whose results are on file:
| compound | EC50 |
| --- | --- |
| Cn1nc([N+](=O)[O-])nc1Sc1nnc(-c2ccccc2)o1 | 10.9 µM (active) |
| Cc1cccc(CS(=O)(=O)c2ncc(Cl)c(C(=O)Nc3ccc(F)cc3)n2)c1 | 2.19 µM (active) |
| O=[N+]([O-])c1cccc(-c2cc(O)n[nH]2)c1 | 2.57 µM (active) |
| CC1CCc2c(sc3nc(C(C)(C)C)nc(N4CCN(C(=O)CCl)CC4)c23)C1 (stereo not given) | 0.481 µM (active) |

Query string: Consider the compound shown here: COC(=O)c1c(NC(=O)/C=C/C(=O)O)sc(C)c1-c1ccc(C)cc1 What is its recorded EC50?
Result string: 11.1 µM (active)
